Tested on: 521955-158-R6-J3-PDC complex spheroid growth, % test/control
TEST_METHOD_NOTES: Anticancer human tumor 521955-158-R6-J3-PDC patient-derived pancreatic carcinoma cell line growth inhibition [Asc]
RUN_PARAMETERS: second compound 0.0316 µM; first compound 0.1 µM; hits give low values
Overview of reported viability, T/C across a group of compounds:
Form entry: value (%) — number only.

Record excerpt, results attached:
COMPOUND | MEAS_VALUE
C=C(F)C(=O)N1CCN(c2nc(OCC3CCCN3C)nc3c2CCN(c2cccc4cccc(Cl)c24)C3)CC1CC#N (stereo not drawn) + Cc1c(S(C)(=O)=O)c(-c2cc(F)cc(N3CCN(c4ccc(NS(=O)(=O)c5ccc(NC(CCN6CCC(C(=O)OCCCP(=O)(O)O)CC6)CSc6ccccc6)c(S(=O)(=O)C(F)(F)F)c5)cc4)CC3)c2)c(-c2ccc(Cl)cc2)n1C(C)C | 79.6
O=C(c1cc(Cc2n[nH]c(=O)c3ccccc23)ccc1F)N1CCN(C(=O)C2CC2)CC1 + CNC(C)C(=O)NC1CN(S(=O)(=O)c2cccc(S(=O)(=O)N3CCC4CCC(C(=O)NC(c5ccccc5)c5ccccc5)N4C(=O)C(NC(=O)C(C)NC)C3)c2)CCC2CCC(C(=O)NC(c3ccccc3)c3ccccc3)N2C1=O | 87.8

Could you now consider this next compound?
Challenge: Return reported viability, T/C; argument: C=C(F)C(=O)N1CCN(c2nc(OCC3CCCN3C)nc3c2CCN(c2cccc4cccc(Cl)c24)C3)CC1CC#N (stereo not drawn) + CNC(C)C(=O)NC1CN(S(=O)(=O)c2cccc(S(=O)(=O)N3CCC4CCC(C(=O)NC(c5ccccc5)c5ccccc5)N4C(=O)C(NC(=O)C(C)NC)C3)c2)CCC2CCC(C(=O)NC(c3ccccc3)c3ccccc3)N2C1=O
Response given: 98.2

###

System: 521955-158-R6-J3-PDC complex spheroid growth, % test/control
TEST_METHOD_NOTES: Anticancer human tumor 521955-158-R6-J3-PDC cell line growth inhibition [Asc];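 also: spheroids exposed to compounds for 7 days; 100% = DMSO vehicle control wells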
RUN_PARAMETERS: second compound 0.316 µM; first compound 1 µM; hits give low values
Description: Multicellular complex tumor spheroid response to apoptosis pathway targeting inhibitors Alrizomadlin, Pelcitoclax, and Dasminapant in combination with a variety of drugs and investigational agents in selected tumor cell lines […] Compounds. […] If the clinical Cmax for an agent had not been determined, the highest concentration tested was 10 microM. […]
ASSAY_ENDPOINT: viability, T/C

MOLECULE | viability, T/C
O=C(c1cc(Cc2n[nH]c(=O)c3ccccc23)ccc1F)N1CCN(C(=O)C2CC2)CC1 + Cc1c(S(C)(=O)=O)c(-c2cc(F)cc(N3CCN(c4ccc(NS(=O)(=O)c5ccc(NC(CCN6CCC(C(=O)OCCCP(=O)(O)O)CC6)CSc6ccccc6)c(S(=O)(=O)C(F)(F)F)c5)cc4)CC3)c2)c(-c2ccc(Cl)cc2)n1C(C)C | 48.6%
C=CC(=O)N1CCN(c2nc(=O)n(-c3c(C)ccnc3C(C)C)c3nc(-c4c(O)cccc4F)c(F)cc23)C(C)C1 (stereo not given) + Cc1c(S(C)(=O)=O)c(-c2cc(F)cc(N3CCN(c4ccc(NS(=O)(=O)c5ccc(NC(CCN6CCC(C(=O)OCCCP(=O)(O)O)CC6)CSc6ccccc6)c(S(=O)(=O)C(F)(F)F)c5)cc4)CC3)c2)c(-c2ccc(Cl)cc2)n1C(C)C | 46.3%
CCN1CCN(Cc2ccc(Nc3ncc(F)c(-c4cc(F)c5nc(C)n(C(C)C)c5c4)n3)nc2)CC1 + Cc1c(S(C)(=O)=O)c(-c2cc(F)cc(N3CCN(c4ccc(NS(=O)(=O)c5ccc(NC(CCN6CCC(C(=O)OCCCP(=O)(O)O)CC6)CSc6ccccc6)c(S(=O)(=O)C(F)(F)F)c5)cc4)CC3)c2)c(-c2ccc(Cl)cc2)n1C(C)C | 53.9%
CCN1CCN(Cc2ccc(Nc3ncc(F)c(-c4cc(F)c5nc(C)n(C(C)C)c5c4)n3)nc2)CC1 + CNC(C)C(=O)NC1CN(S(=O)(=O)c2cccc(S(=O)(=O)N3CCC4CCC(C(=O)NC(c5ccccc5)c5ccccc5)N4C(=O)C(NC(=O)C(C)NC)C3)c2)CCC2CCC(C(=O)NC(c3ccccc3)c3ccccc3)N2C1=O | 71%

Could you now consider this next molecule?
Challenge: Return reported viability, T/C; argument: O=C(c1ccc(F)c(F)c1Nc1ccc(I)cc1F)N1CC(O)([C@@H]2CCCCN2)C1 + CNC(C)C(=O)NC1CN(S(=O)(=O)c2cccc(S(=O)(=O)N3CCC4CCC(C(=O)NC(c5ccccc5)c5ccccc5)N4C(=O)C(NC(=O)C(C)NC)C3)c2)CCC2CCC(C(=O)NC(c3ccccc3)c3ccccc3)N2C1=O
Response given: 29.9%

###

Overview of reported viability, T/C across a group of compounds:
System: 521955-158-R6-J3-PDC complex spheroid growth, % test/control
TEST_METHOD_NOTES: Anticancer human tumor 521955-158-R6-J3-PDC cell line growth inhibition [Asc];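 also: spheroids exposed to compounds for 7 days; 100% = DMSO vehicle control wells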
RUN_PARAMETERS: second compound 3 µM; first compound 0.316 µM; hits give low values
Form entry: value (%) — number only.

Record excerpt, results attached:
COMPOUND | TESTED_TARGET | viability, T/C [%]
CCN1CCN(Cc2ccc(Nc3ncc(F)c(-c4cc(F)c5nc(C)n(C(C)C)c5c4)n3)nc2)CC1 + CCN1C(C(=O)NC23CCC(C(=O)O)(CC2)CC3)C(c2cccc(Cl)c2F)C2(C(=O)Nc3cc(Cl)ccc32)C12CCCCC2 | 521955-158-R6-J3-PDC complex spheroid growth, % test/control | 103
CNC(C)C(=O)NC1CN(S(=O)(=O)c2cccc(S(=O)(=O)N3CCC4CCC(C(=O)NC(c5ccccc5)c5ccccc5)N4C(=O)C(NC(=O)C(C)NC)C3)c2)CCC2CCC(C(=O)NC(c3ccccc3)c3ccccc3)N2C1=O (stereo not drawn) + CCN1C(C(=O)NC23CCC(C(=O)O)(CC2)CC3)C(c2cccc(Cl)c2F)C2(C(=O)Nc3cc(Cl)ccc32)C12CCCCC2 | 521955-158-R6-J3-PDC complex spheroid growth, % test/control | 96.6
O=C(c1ccc(F)c(F)c1Nc1ccc(I)cc1F)N1CC(O)([C@@H]2CCCCN2)C1 + CCN1C(C(=O)NC23CCC(C(=O)O)(CC2)CC3)C(c2cccc(Cl)c2F)C2(C(=O)Nc3cc(Cl)ccc32)C12CCCCC2 | 521955-158-R6-J3-PDC complex spheroid growth, % test/control | 52.5

Challenge: Return reported viability, T/C; argument: COc1c(OCCCN2CCOCC2)ccc2c3n(c(=NC(=O)c4cnc(N)nc4)nc12)CCN3 + CCN1C(C(=O)NC23CCC(C(=O)O)(CC2)CC3)C(c2cccc(Cl)c2F)C2(C(=O)Nc3cc(Cl)ccc32)C12CCCCC2
Response given: 49.6

Challenge: Return reported viability, T/C; argument: C=C(F)C(=O)N1CCN(c2nc(OCC3CCCN3C)nc3c2CCN(c2cccc4cccc(Cl)c24)C3)CC1CC#N (stereo not drawn) + CCN1C(C(=O)NC23CCC(C(=O)O)(CC2)CC3)C(c2cccc(Cl)c2F)C2(C(=O)Nc3cc(Cl)ccc32)C12CCCCC2
Response given: 102

Challenge: Return reported viability, T/C; argument: O=C(c1cc(Cc2n[nH]c(=O)c3ccccc23)ccc1F)N1CCN(C(=O)C2CC2)CC1 + CCN1C(C(=O)NC23CCC(C(=O)O)(CC2)CC3)C(c2cccc(Cl)c2F)C2(C(=O)Nc3cc(Cl)ccc32)C12CCCCC2
Response given: 96.5

Challenge: Return reported viability, T/C; argument: C=CC(=O)N1CCN(c2nc(=O)n(-c3c(C)ccnc3C(C)C)c3nc(-c4c(O)cccc4F)c(F)cc23)C(C)C1 (stereo not drawn) + CCN1C(C(=O)NC23CCC(C(=O)O)(CC2)CC3)C(c2cccc(Cl)c2F)C2(C(=O)Nc3cc(Cl)ccc32)C12CCCCC2
Response given: 97.7

Challenge: Return reported viability, T/C; argument: C#Cc1c(F)ccc2cc(O)cc(-c3ncc4c(N5CC6CCC(C5)N6)nc(OCC56CCCN5CC(F)C6)nc4c3F)c12 (stereo not drawn) + CCN1C(C(=O)NC23CCC(C(=O)O)(CC2)CC3)C(c2cccc(Cl)c2F)C2(C(=O)Nc3cc(Cl)ccc32)C12CCCCC2
Response given: 51

###

Test system: 521955-158-R6-J3-PDC complex spheroid growth, % test/control
TEST_METHOD_NOTES: Anticancer human tumor 521955-158-R6-J3-PDC cell line growth inhibition [Asc];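 also: spheroids exposed to compounds for 7 days; 100% = DMSO vehicle control wells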
RUN_PARAMETERS: second compound 0.1 µM; first compound 0.03 µM; hits give low values
ASSAY_ENDPOINT: viability, T/C (%)
Form entry: value (%) — number only.

Record excerpt, results attached:
MOLECULE | ASSAY_ENDPOINT | UNIT_ANNOTATION | MEAS_VALUE
NC(=O)C(=Cn1cnc(-c2cc(C(F)(F)F)cc(C(F)(F)F)c2)n1)c1cncnc1 + CNC(C)C(=O)NC1CN(S(=O)(=O)c2cccc(S(=O)(=O)N3CCC4CCC(C(=O)NC(c5ccccc5)c5ccccc5)N4C(=O)C(NC(=O)C(C)NC)C3)c2)CCC2CCC(C(=O)NC(c3ccccc3)c3ccccc3)N2C1=O | viability, T/C | % | 58.7
Cc1nc(N2CCC3(CC2)COC(C)C3N)c(CO)nc1Sc1ccnc(N)c1Cl (stereo not given) + Cc1c(S(C)(=O)=O)c(-c2cc(F)cc(N3CCN(c4ccc(NS(=O)(=O)c5ccc(NC(CCN6CCC(C(=O)OCCCP(=O)(O)O)CC6)CSc6ccccc6)c(S(=O)(=O)C(F)(F)F)c5)cc4)CC3)c2)c(-c2ccc(Cl)cc2)n1C(C)C | viability, T/C | % | 63.2
NC(=O)C(=Cn1cnc(-c2cc(C(F)(F)F)cc(C(F)(F)F)c2)n1)c1cncnc1 + Cc1c(S(C)(=O)=O)c(-c2cc(F)cc(N3CCN(c4ccc(NS(=O)(=O)c5ccc(NC(CCN6CCC(C(=O)OCCCP(=O)(O)O)CC6)CSc6ccccc6)c(S(=O)(=O)C(F)(F)F)c5)cc4)CC3)c2)c(-c2ccc(Cl)cc2)n1C(C)C | viability, T/C | % | 62.1
CCN1C(C(=O)NC23CCC(C(=O)O)(CC2)CC3)C(c2cccc(Cl)c2F)C2(C(=O)Nc3cc(Cl)ccc32)C12CCCCC2 (stereo not given) + CNC(C)C(=O)NC1CN(S(=O)(=O)c2cccc(S(=O)(=O)N3CCC4CCC(C(=O)NC(c5ccccc5)c5ccccc5)N4C(=O)C(NC(=O)C(C)NC)C3)c2)CCC2CCC(C(=O)NC(c3ccccc3)c3ccccc3)N2C1=O | viability, T/C | % | 92.4

Could you now consider this next molecule?
Challenge: Return reported viability, T/C; argument: Cc1nc(N2CCC3(CC2)COC(C)C3N)c(CO)nc1Sc1ccnc(N)c1Cl (stereo not given) + CNC(C)C(=O)NC1CN(S(=O)(=O)c2cccc(S(=O)(=O)N3CCC4CCC(C(=O)NC(c5ccccc5)c5ccccc5)N4C(=O)C(NC(=O)C(C)NC)C3)c2)CCC2CCC(C(=O)NC(c3ccccc3)c3ccccc3)N2C1=O
Response given: 79.5
